- Species on record: Bos taurus
- experiment: Displacement of [3H]-colchicine from bovine brain tubulin at 5 uM after 10 mins relative to control
assay readout: inhibition (%)
The figure you give is taken to be in %; do not add the unit.

Sample answers from the record:
INSERT INTO results (smiles_str, unit, value) VALUES
  ('CCOc1ccc(N(C)c2nc(N)nc3[nH]c4ccccc4c23)cc1', '%', 82),
  ('COc1ccc(N(C)c2nc(C)nc3[nH]ccc23)cc1', '%', 70),
  ('CCN(c1ccc(OC)cc1)c1nc(N)nc2[nH]c3ccccc3c12', '%', 76);

// next item, inhibition requested
Sample `COc1ccc(N(C)c2nc(N)nc3[nH]c4ccccc4c23)cc1` ; inhibition observed: 84

---

EC50 listing for selected molecules.
- experiment: Induction of interphase microtubule depolymerization in rat A10 cells after 18 to 24 hrs by indirect immunofluorescence assay
- Assay type: cell-based
Answer with a number only, understood to be in nM.

Reported EC50 of `COc1ccc(N(C)c2nc(N)nc3[nH]c4ccccc4c23)cc1` : 105

Documented EC50 of `CCOc1ccc(N(C)c2nc(N)nc3[nH]c4ccccc4c23)cc1` : 83

What the record says about `COc1ccc(/C=C\c2cc(OC)c(OC)c(OC)c2)cc1O` : EC50 is 13

GET /value?item= `CCN(c1ccc(OC)cc1)c1nc(N)nc2[nH]c3ccccc3c12` &field=EC50 returns 198
